Kindly supply the reported logD values for the records listed here.
- experimentDescription: physchem
- runParameters: octanol/water, pH 5
Give bare numbers.

1) CO[C@@H]1[C@@H](OC(N)=O)[C@@H](O)[C@H](Oc2ccc3c(O)c(NC(=O)c4cc(CC=C(C)C)c(O)c(CN5CCN(CCCN(C)C)CC5)c4)c(=O)oc3c2C)OC1(C)C = -2.97
2) CO[C@@H]1[C@@H](OC(N)=O)[C@@H](O)[C@H](Oc2ccc3c(O)c(NC(=O)c4cc(CC=C(C)C)c(O)c(CN(C)C(=O)CS(C)(=O)=O)c4)c(=O)oc3c2C)OC1(C)C = 1.28
3) CO[C@@H]1[C@@H](OC(N)=O)[C@@H](O)[C@H](Oc2ccc3c(O)c(NC(=O)c4cc(CC=C(C)C)c(O)c(CN(C)C(=O)CCCS(N)(=O)=O)c4)c(=O)oc3c2C)OC1(C)C = 1.27

Kindly give each listed record's logD.
1. CO[C@@H]1[C@@H](OC(N)=O)[C@@H](O)[C@H](Oc2ccc3c(O)c(NC(=O)c4cc(CC=C(C)C)c(O)c(CN(C)C(=O)CCC(=O)O)c4)c(=O)oc3c2C)OC1(C)C
2. CO[C@@H]1[C@@H](OC(N)=O)[C@@H](O)[C@H](Oc2ccc3c(O)c(NC(=O)c4cc(CC=C(C)C)c(O)c(CN(C)C(=O)Cc5nnn[nH]5)c4)c(=O)oc3c2C)OC1(C)C

Result string:
0.93
1.13

###

- experimentDescription: physchem
- runParameters: octanol/water, pH 6.5
Kindly supply the reported logD values for the records listed here.
Give bare numbers.

1) CO[C@@H]1[C@@H](OC(N)=O)[C@@H](O)[C@H](Oc2ccc3c(O)c(NC(=O)c4cc(CC=C(C)C)c(O)c(CN(C)C(=O)CN(C)C)c4)c(=O)oc3c2C)OC1(C)C = 1.15
2) CCN(CC)Cc1cc(C(=O)Nc2c(O)c3ccc(O[C@@H]4OC(C)(C)[C@H](OC)[C@@H](OC(N)=O)[C@H]4O)c(C)c3oc2=O)cc(CC=C(C)C)c1O = 1.7
3) CO[C@@H]1[C@@H](OC(N)=O)[C@@H](O)[C@H](Oc2ccc3c(O)c(NC(=O)c4cc(CC=C(C)C)c(O)c(CN(C)C(=O)[C@H](C)OC(C)=O)c4)c(=O)oc3c2C)OC1(C)C = 2.49
4) CO[C@@H]1[C@@H](OC(N)=O)[C@@H](O)[C@H](Oc2ccc3c(O)c(NC(=O)c4cc(CC=C(C)C)c(O)c(CN(C)C(=O)c5ccccc5)c4)c(=O)oc3c2C)OC1(C)C = 4.15

Then this molecule:
Query string: I'd like to know its logD. The molecule in question is CO[C@@H]1[C@@H](OC(N)=O)[C@@H](O)[C@H](Oc2ccc3c(O)c(NC(=O)c4cc(CC=C(C)C)c(O)c(CN(C)C(=O)Cc5nnn[nH]5)c4)c(=O)oc3c2C)OC1(C)C
Result string: 0.24

###

Kindly supply the reported logD values for the records listed here.
- experimentDescription: physchem
- runParameters: octanol/water, pH 6.5

Here are 2 compounds together with their reported answers.
1) CO[C@@H]1[C@@H](OC(N)=O)[C@@H](O)[C@H](Oc2ccc3c(O)c(NC(=O)c4cc(CC=C(C)C)c(O)c(CN5CCN(c6ncccn6)CC5)c4)c(=O)oc3c2C)OC1(C)C = 2.63
2) CO[C@@H]1[C@@H](OC(N)=O)[C@@H](O)[C@H](Oc2ccc3c(O)c(NC(=O)c4cc(CC=C(C)C)c(O)c(CN(C)C(=O)CCCS(N)(=O)=O)c4)c(=O)oc3c2C)OC1(C)C = 1.14

Then this compound:
Query string: I'd like to know its logD. The compound in question is CO[C@@H]1[C@@H](OC(N)=O)[C@@H](O)[C@H](Oc2ccc3c(O)c(NC(=O)c4cc(CC=C(C)C)c(O)c(CN5CCN(CCCN(C)C)CC5)c4)c(=O)oc3c2C)OC1(C)C
Result string: -1.32
